Target: c-Myc template DNA (c-myc quadruplex)
Assay: Quadruplex binding / stop assay (Taq polymerase arrest, capillary electrophoresis)
Details: read-out: Stop Data c-Myc μM; concentration at which 50% of the DNA was arrested (arrested:full-length 1:1)
readout-kind: IC50 (µM)

# annotated cases, reported IC50 shown
{"molecule": "CC(C)(C)OC(=O)NC1CCN(c2c(F)c(N)c3c(=O)c(C(=O)O)cn4c3c2Oc2cc3ccccc3cc2-4)C1 (stereo not drawn)", "unit-symbol": "µM", "IC50": 1.75}
{"molecule": "CN1CCN(CCCNC(=O)c2cn3c4c(c(NCCN5CCCC5)c(F)cc4c2=O)Oc2cc4c(cc2-3)oc2ccccc24)CC1", "unit-symbol": "µM", "IC50": 0.75}
{"molecule": "NC1CCN(C(=O)c2cn3c4cc5c(=O)c6ccccc6c(=O)c5cc4oc4c(N5CCC(N)C5)c(F)cc(c2=O)c43)C1 (stereo not drawn)", "unit-symbol": "µM", "IC50": 0.4}

(A) CC(C)(C)OC(=O)N[C@H]1CCN(c2c(F)cc3c(=O)c(C(=O)O)cn4c5cc6oc7cc([N+](=O)[O-])ccc7[nH]c6cc5oc2c34)C1
(B) CC1CCN(CCCNc2c(F)cc3c(=O)c(C(=O)NCCC4CCCN4C)cn4c3c2Oc2cc3ccccc3cc2-4)CC1 (stereo not drawn)
### Prompt Returns the identifier with the smallest measured IC50 among A and B . Write the label of whichever entry you select.
### Response A
(A: 0.5 µM, B: 0.75 µM)

----------
Test: Pharmacokinetic/toxicokinetic evaluation in rats
Assay type: in vivo
Details: male, rat, plasma, iv, 7.1 mg/kg, Dose 1, 7.1 mg/kg IV
readout-kind: Cmax (ng/mL)
Output spec: scalar in ng/mL, unitless text.

### Prompt Look up Cmax: CN1CCCC1CCNC(=O)c1cn2c3c(c(N4CCC(c5cnccn5)C4)c(F)cc3c1=O)Oc1cc3ccccc3cc1-2 (stereo not shown)
### Response 514

----------
Molecular target: c-Myc template DNA (c-myc quadruplex)
Assay: Quadruplex binding / stop assay (Taq polymerase arrest, capillary electrophoresis)
Details: read-out: Stop Data c-Myc μM; concentration at which 50% of the DNA was arrested (arrested:full-length 1:1)
readout-kind: IC50 (µM)

(a) O=C(CN1CCCC1)N[C@@H]1CCN(c2c(F)cc3c(=O)c(C(=O)NCCN4CCCC4)cn4c3c2Oc2cc3c(cc2-4)oc2ccccc23)C1 [compound 506]
(b) O=C(O)c1cn2c3c(c(NCCCN4CCOCC4)c(F)cc3c1=O)Oc1cc3c(O)ncnc3cc1-2 [compound 12]
### Prompt Returns the identifier with the smallest measured IC50 among a and b . Write the label of whichever entry you select.
### Response a
(a: 0.375 µM, b: 1.75 µM)

----------
Molecular target: c-Myc template DNA (c-myc quadruplex)
Assay: Quadruplex binding / stop assay (Taq polymerase arrest, capillary electrophoresis)
Conditions: read-out: Stop Data c-Myc μM; concentration at which 50% of the DNA was arrested (arrested:full-length 1:1)
readout-kind: IC50 (µM)

# annotated cases, reported IC50 shown
{"molecule": "COc1cccc(CCNc2c(F)cc3c(=O)c(C(=O)NCCC4CCCN4C)cn4c3c2Oc2cc3ccccc3cc2-4)c1OC (stereo not drawn)", "IC50, µM": 2.5}
{"molecule": "CN1CCCC1CCNC(=O)c1cn2c3cc4c(cc3oc3c(NCCN5CCOCC5)c(F)cc(c1=O)c32)c(=O)c1ccccc14 (stereo not drawn)", "IC50, µM": 0.75}
{"molecule": "CN(C)CCCCNC(=O)c1cn2c3c(c(NCCC4CCCN4C)ccc3c1=O)Oc1cc3ccccc3cc1-2 (stereo not drawn)", "IC50, µM": 0.75}
{"molecule": "CN1CCCC1CCNC(=O)c1cn2c3cc4oc5cc([N+](=O)[O-])ccc5[nH]c4cc3oc3c(NCCN4CCCC4)c(F)cc(c1=O)c32 (stereo not drawn)", "IC50, µM": 0.18}

(a) CN1CCCC1CCNCC(=O)N[C@@H]1CCN(c2c(F)cc3c(=O)c(C(=O)NCCN4CCCCC4)cn4c3c2Oc2cc3c(cc2-4)oc2ccccc23)C1 (stereo partly drawn)
(b) O=C(N[C@H]1C(O)O[C@H](CO)[C@H](O)[C@@H]1O)c1cn2c3c(c(NCCCN4CCOCC4)c(F)cc3c1=O)Oc1cc3c(cc1-2)oc1ccccc13 (stereo partly drawn)
### Prompt Returns the identifier with the smallest measured IC50 among a and b . Write the label of whichever entry you select.
### Response a
